For each record, write down the corresponding Ratio.
Target: Sigma non-opioid intracellular receptor 1 (Rattus norvegicus) (UniProt Q9R0C9)
Sequence (Q9R0C9 whole entry): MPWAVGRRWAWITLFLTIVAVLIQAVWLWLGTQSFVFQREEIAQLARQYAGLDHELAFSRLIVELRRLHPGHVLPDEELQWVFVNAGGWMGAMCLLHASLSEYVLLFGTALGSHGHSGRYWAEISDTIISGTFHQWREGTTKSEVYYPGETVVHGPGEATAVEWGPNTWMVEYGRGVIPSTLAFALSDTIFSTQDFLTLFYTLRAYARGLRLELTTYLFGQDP
Assay: IC50 ratio; sigma 1 to sigma 2
Settings: Cavia porcellus

Solved entries:
{"columns": ["molecule", "target under test", "Ratio"],
 "data": [
  ["CC1(C)CCCN(CCCCCC2CCCc3ccccc32)C1 (centres undefined)", "Sigma non-opioid intracellular receptor 1 (Rattus norvegicus) (UniProt Q9R0C9)", "> 100000"],
  ["COc1ccc2c(c1)CCCC2CCCN1CCCC(C)(C)C1 (centres undefined)", "Sigma non-opioid intracellular receptor 1 (Rattus norvegicus) (UniProt Q9R0C9)", "> 114"],
  ["COc1ccc2c(c1)CCCC2CCCCN1CCCC(C)(C)C1 (centres undefined)", "Sigma non-opioid intracellular receptor 1 (Rattus norvegicus) (UniProt Q9R0C9)", "> 100000"]
]}

Below: the item to evaluate.
Lab entry: Sigma non-opioid intracellular receptor 1 (Rattus norvegicus) (UniProt Q9R0C9) assay, molecule CC1(C)CCCN(CCC2CCCc3ccccc32)C1 (centres undefined) , Ratio = > 9090
